B1: Membrane-associated guanylate kinase, WW and PDZ domain-containing protein 2, residues 296 to 340; numbered along this chain, Q86UL8 (parent)
chain: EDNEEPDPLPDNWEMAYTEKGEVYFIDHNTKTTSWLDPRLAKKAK

# Variants of: B1
# assay summary: abundance fitness (aPCA) (normalised: wild type 0, dead -1); higher = more abundant; growth selection in yeast, the domain comes from the species named
# test parameters: Homo sapiens
Quick rule: abundance fitness of at least -0.3 means 1, below that means -1.

Sample answers from the record:
| variant descriptor | assigned class |
| --- | --- |
| N29T | 1 |
| K45G | 1 |

With those in mind, consider the next variant.
Ask: Entry "K42V" : is its abundance fitness no less than -0.3?
Result: 1

Measured values drawn from the Human Domainome abundance scans (Beltran et al. 2025) for this set.
